Target: T1, wild-type CNTFR-Fc (human, UniProt P26992 23-342)
T1 construct: also called wtCNTFR-Fc; not shown: Fc domain; captured with anti-mouse Fc antibody
T1 sequence: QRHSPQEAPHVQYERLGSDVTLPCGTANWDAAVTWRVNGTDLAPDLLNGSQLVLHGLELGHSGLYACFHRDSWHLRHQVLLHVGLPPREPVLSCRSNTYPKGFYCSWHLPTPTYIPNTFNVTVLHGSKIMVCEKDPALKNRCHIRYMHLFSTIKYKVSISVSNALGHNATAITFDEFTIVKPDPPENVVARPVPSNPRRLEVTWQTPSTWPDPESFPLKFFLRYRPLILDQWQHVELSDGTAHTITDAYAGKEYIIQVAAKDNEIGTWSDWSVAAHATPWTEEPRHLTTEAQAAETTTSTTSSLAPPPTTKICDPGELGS
Test: cell-free ELISA, HIS-tagged soluble CLCF1 titrated against 2 nM CNTFR-Fc, anti-HIS capture, HRP anti-mouse detection
assay.endpoint: EC50 (read off the curve)

[[record]]
binder = "recombinant soluble wild-type human CLCF1 (ligand, Expressed in E. coli from pET28b and purified from inclusion bodies by RP-HPLC; also called wtCLCF1; wild-type CLCF1) LNRTGDPGPGPSIQKTYDLTRYLEHQLRSLAGTYLNYLGPPFNEPDFNPPRLGAETLPRATVDLEVWRSLNDKLRLTQNYEAYSHLLCYLRGLNRQAATAELRRSLAHFCTSLQGLLGSIAGVMAALGYPLPQPLPGTEPTWTPGPAHSDFLQKMDDFWLLKELQTWLWRSAKDFNRLKKKMQPPAAAVTLHLGAHGF"
assay_endpoint = "EC50 (read off the curve)"
measurement = "~80 nM"

[[record]]
binder = "recombinant soluble FRR-CLCF1 (L86F, Q96R, H148R) (ligand, Expressed in E. coli from pET28b) LNRTGDPGPGPSIQKTYDLTRYLEHQLRSLAGTYLNYLGPPFNEPDFNPPRLGAETLPRATVDLEVWRSLNDKLRLTQNYEAYSHFLCYLRGLNRRAATAELRRSLAHFCTSLQGLLGSIAGVMAALGYPLPQPLPGTEPTWTPGPARSDFLQKMDDFWLLKELQTWLWRSAKDFNRLKKKMQPPAAAVTLHLGAHGF"
assay_endpoint = "EC50 (read off the curve)"
measurement = "~1 nM"

[[record]]
binder = "recombinant soluble sfCLCF1 (shuffled CLCF1; Y22C, L86F, Q96R, H148R, W169L, K180R) (ligand, HIS-tagged in the cell-free assay; also called the clone with all 6 mutations; a variant with all of the mutations combined) LNRTGDPGPGPSIQKTYDLTRCLEHQLRSLAGTYLNYLGPPFNEPDFNPPRLGAETLPRATVDLEVWRSLNDKLRLTQNYEAYSHFLCYLRGLNRRAATAELRRSLAHFCTSLQGLLGSIAGVMAALGYPLPQPLPGTEPTWTPGPARSDFLQKMDDFWLLKELQTWLLRSAKDFNRLKRKMQPPAAAVTLHLGAHGF"
assay_endpoint = "EC50 (read off the curve)"
measurement = "~0.2 nM"


Ask: Item under review: v4 (ligand, the text prints no Kd for it) soluble CLCF1 variant: LNRTGDPGPGPSIQKTYDLTRYLEHQLRSLAGTYLNYLGPPFNEPDFNPPRLGAETLPRATVDLEVWRSLNDKLRLTQNYEAYSHFLCYLRGLNRRAATAELRRSLAHFCTSLQGLLGSIAGVMAALGYPLPQPLPGTEPTWTPGPARSDFLQKMDDFWLLKELQTWLLRSAKDFNRLKRKMQPPAAAVTLHLGAHGF . Reported EC50 (read off the curve)?
Reply: ~0.2 nM
